Data origin, for the record: patent US20070276011A1

For each entry below, report its Inhibitory Ratio at 25 μM (%) value.
# system: recombinant human PAI-1 (Homo sapiens)
# Sequence (P05121 24-402): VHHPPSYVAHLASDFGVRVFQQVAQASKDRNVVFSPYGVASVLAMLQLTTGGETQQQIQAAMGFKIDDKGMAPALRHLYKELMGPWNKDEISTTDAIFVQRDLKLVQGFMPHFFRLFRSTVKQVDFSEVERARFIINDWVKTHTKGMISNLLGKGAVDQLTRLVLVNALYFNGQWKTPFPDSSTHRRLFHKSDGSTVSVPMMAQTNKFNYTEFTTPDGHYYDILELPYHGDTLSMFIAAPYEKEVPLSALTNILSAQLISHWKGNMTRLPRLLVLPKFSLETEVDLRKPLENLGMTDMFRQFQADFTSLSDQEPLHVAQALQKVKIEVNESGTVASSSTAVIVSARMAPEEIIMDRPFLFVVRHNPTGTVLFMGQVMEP
# assay.procedure: PAI-1 inhibitory activity, Test Method A (tPA fluorogenic substrate, Tris buffer pH8.0, 37 C)
# Assay type: biochemical
# condition.context: 25 μM test compound; Test Method A

For each listed entry, give its Inhibitory Ratio at 25 μM (%).
1. CC(C)C1=NN(c2cc(Cl)cc(Cl)c2)C(=O)C1=Cc1cc(C=Cc2ccccc2)ccc1O
2. O=C(O)c1ccc(NC(=O)c2cccc(C=C3SC(=O)N(Cc4ccc(Cl)c(Cl)c4)C3=O)c2)cc1
3. CCOC1=NN(c2ccc([N+](=O)[O-])cc2)C(=O)C1=Cc1cc(/C=C/c2ccccc2)ccc1O

# output
1. >99%
2. >99%
3. >99%
